# test.target: ENPP1 (Homo sapiens (Human), UniProt P22413)
# Sequence (P22413 whole entry, species assumed): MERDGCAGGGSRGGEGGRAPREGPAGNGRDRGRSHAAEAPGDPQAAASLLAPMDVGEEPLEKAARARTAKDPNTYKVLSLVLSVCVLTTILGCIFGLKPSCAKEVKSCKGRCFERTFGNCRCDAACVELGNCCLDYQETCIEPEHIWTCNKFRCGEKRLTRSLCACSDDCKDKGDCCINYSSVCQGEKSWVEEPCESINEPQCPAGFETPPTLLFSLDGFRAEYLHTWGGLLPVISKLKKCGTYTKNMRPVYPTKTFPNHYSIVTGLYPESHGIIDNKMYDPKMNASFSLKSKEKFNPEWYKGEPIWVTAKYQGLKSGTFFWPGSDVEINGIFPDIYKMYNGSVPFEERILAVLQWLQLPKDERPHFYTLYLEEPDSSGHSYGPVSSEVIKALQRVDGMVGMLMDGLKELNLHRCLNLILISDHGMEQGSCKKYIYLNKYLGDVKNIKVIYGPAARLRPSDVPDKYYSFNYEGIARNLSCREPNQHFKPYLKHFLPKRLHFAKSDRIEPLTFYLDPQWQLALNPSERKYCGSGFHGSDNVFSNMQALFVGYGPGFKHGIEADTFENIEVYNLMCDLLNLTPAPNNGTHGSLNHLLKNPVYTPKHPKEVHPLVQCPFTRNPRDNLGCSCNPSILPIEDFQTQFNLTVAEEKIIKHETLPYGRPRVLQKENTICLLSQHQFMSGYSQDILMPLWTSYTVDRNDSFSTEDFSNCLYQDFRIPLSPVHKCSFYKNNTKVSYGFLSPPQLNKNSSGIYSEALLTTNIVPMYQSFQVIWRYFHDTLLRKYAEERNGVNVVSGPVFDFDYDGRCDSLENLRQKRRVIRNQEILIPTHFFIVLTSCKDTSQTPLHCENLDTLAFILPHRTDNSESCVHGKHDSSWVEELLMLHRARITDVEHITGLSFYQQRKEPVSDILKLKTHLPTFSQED
# assay.overview: ATP-Glo enzymatic assay (ATP substrate, AMP-Glo readout)
# Format: biochemical
# reported.conditions: 25° C. for 60 min, 50 mM Tris pH 8.8
Field: IC50. Provide a value for each of the compounds that follow.

A selection of reference data follows.
• Cc1ncc2nc(C(F)(F)F)n(Cc3c(F)cc(S(N)(=O)=O)cc3F)c2c1-c1ccccc1 = < 1 nM
• Cc1ncc2nc(CC3CC3)n(Cc3c(F)cc(S(N)(=O)=O)cc3F)c2c1-c1ccccc1 = < 1 nM
• Cc1ncc2nc(C)n(Cc3c(F)cc(S(N)(=O)=O)cc3F)c2c1-c1ccccc1F = < 1 nM

I have 2 compounds here; please give me IC50 for each one.
1. Cc1nc2cnc(OC(F)F)c(-c3ccccc3)c2n1Cc1ccc(S(N)(=O)=O)cc1
2. Cc1ncc2nc(CC(F)(F)F)n(Cc3c(F)cc(S(N)(=O)=O)cc3F)c2c1-c1ccccc1

Key:
1. < 1 nM
2. < 1 nM

I have 7 compounds here; please give me IC50 for each one.
1. Cc1ncc2nc(C(F)F)n(Cc3c(F)cc(S(N)(=O)=O)cc3F)c2c1-c1ccccc1
2. Cc1ncc2nc(CN3CCCC3)n(Cc3c(F)cc(S(N)(=O)=O)cc3F)c2c1-c1ccccc1
3. COc1ncc2nc(C)n(Cc3ccc(S(N)(=O)=O)cn3)c2c1-c1ccccc1
4. [2H]C([2H])([2H])Oc1ncc2nc(C)n(Cc3ccc(S(N)(=O)=O)cc3)c2c1-c1ccccc1
5. Cc1ncc2ccn(Cc3ccc(NS(N)(=O)=O)cc3)c2c1-c1ccn(C)n1
6. [2H]C([2H])([2H])Oc1ncc2nc(C(F)F)n(Cc3ncc(S(N)(=O)=O)cc3F)c2c1-c1ccccc1
7. Cc1ncc2c(c1C1=CCCC1)n(Cc1c(F)cc(S(N)(=O)=O)cc1F)c(=O)n2C

Key:
1. < 1 nM
2. < 1 nM
3. < 1 nM
4. < 1 nM
5. > 1000 nM
6. < 1 nM
7. < 1 nM
